Source of measurements: the supplement of paper PMC8866396

Reported cell viability values follow for various molecules
System: IL-6-GFP PC-9
Assay: cell viability (CCK-8 OD) relative to DMSO control (fraction of control); higher = more viable cells
Settings: compound concentration: 10 uM; treatment time: 48 h
READOUT_NAME: cell viability

>  <MOLECULE>
COC1OC2OC3(C)CCC4C(C)CCC(C1C)C24OO3 (stereo not drawn) [Artemether]

>  <REPORTED_MEASUREMENT>
1.29

$$$$
>  <MOLECULE>
CNC(=O)c1cc(Oc2ccc(NC(=O)Nc3ccc(Cl)c(C(F)(F)F)c3)cc2)ccn1 [Sorafenib]

>  <REPORTED_MEASUREMENT>
0.565

$$$$
>  <MOLECULE>
CCN1CCN(Cc2ccc(Nc3ncc(F)c(-c4cc(F)c5nc(C)n(C(C)C)c5c4)n3)nc2)CC1 [Abemaciclib]

>  <REPORTED_MEASUREMENT>
0.746

$$$$
